Molecular target: ~100 representative kinases (Homo sapiens)
Construct: Recombinant protein kinase domains with a concentration of 2 μM
Sequence (Q13043 whole entry, the tested form may be a part): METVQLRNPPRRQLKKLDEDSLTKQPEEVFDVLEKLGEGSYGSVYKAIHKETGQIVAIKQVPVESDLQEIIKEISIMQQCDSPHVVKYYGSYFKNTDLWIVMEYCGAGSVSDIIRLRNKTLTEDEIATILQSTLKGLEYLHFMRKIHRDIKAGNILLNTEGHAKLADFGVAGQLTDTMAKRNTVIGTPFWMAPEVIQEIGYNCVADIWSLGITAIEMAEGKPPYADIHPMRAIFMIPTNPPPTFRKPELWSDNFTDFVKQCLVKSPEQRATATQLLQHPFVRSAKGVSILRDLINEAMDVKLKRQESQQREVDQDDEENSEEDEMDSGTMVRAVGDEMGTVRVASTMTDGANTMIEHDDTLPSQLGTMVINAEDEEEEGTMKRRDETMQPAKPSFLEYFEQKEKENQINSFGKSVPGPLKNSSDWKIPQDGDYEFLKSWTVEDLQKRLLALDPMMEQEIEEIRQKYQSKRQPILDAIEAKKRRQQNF
Experiment: DSF 100 kinase selectivity screen;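 note: compound tested at 20 µM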
Assay type: binding
Details: Protein STK4; DSF; average of three replicates
Method: Recombinant protein kinase domains with a concentration of 2 μM were mixed with a 20 μM compound solution in dimethyl sulfoxide (DMSO), 20 mM Hepes (pH 7.5), and 500 mM NaCl. SYPRO Orange (5000×, Invitrogen) was added as a fluorescence probe (1μl/ml). Subsequently, temperature-dependent protein unfolding profiles were measured using the QuantStudio 5 realtime PCR machine (Thermo Fisher Scientific, Waltham, MA, USA). […] The temperature was raised with a step rate of 3°C/min. […]
In this section, each of the compounds is paired with its reported dTm.
readout-label: dTm (K)

- CC(C)(C)c1cc(NC(=O)Nc2cccc(-c3c[nH]c4ncnc(N5CCOCC5)c34)c2)n(-c2ccc3ncccc3c2)n1: 8.26
- COc1cc(C(=O)N2CCOCC2)c(F)cc1Nc1nc(N(C)C)c2c(Cl)c[nH]c2n1: -1.57
- Cc1ccc(C(=O)Nc2ccc(CN3CCN(C)CC3)c(C(F)(F)F)c2)cc1C#Cc1c[nH]c2ncnc(N3CCOCC3)c12: 7.61
- O=C(Nc1cccc(-c2c[nH]c3ncnc(N4CCOCC4)c23)c1)C1(C(=O)Nc2cccc3c2CCC3)CC1: -11.70
- O=C(Nc1cccc(-c2c[nH]c3ncnc(N4CCOCC4)c23)c1)C1(C(=O)Nc2cc(Br)c(F)cc2F)CC1: 0.00
- C[C@@H]1CN(c2cc(-c3n[nH]c4ccc(OC5(C)CC5)cc34)ncn2)C[C@H](C)O1: -0.67
- Cc1cc(NC(=O)C2(C(=O)Nc3cccc(-c4c[nH]c5ncnc(N6CCOCC6)c45)c3)CC2)ccc1F: 7.44
- O=C(Nc1ccccc1)C1(C(=O)Nc2cccc(-c3c[nH]c4ncnc(N5CCOCC5)c34)c2)CC1: 4.49
- Cc1ccc(C(=O)Nc2ccc(CN3CCN(C)CC3)c(C(F)(F)F)c2)cc1C#Cc1cnc2[nH]ncc2c1 [GZD-824, reference compound]: 4.50
- COc1ccc(NC(=O)C2(C(=O)Nc3cccc(-c4c[nH]c5ncnc(N6CCOCC6)c45)c3)CC2)cc1: 2.68
- O=C(Nc1cccc(-c2c[nH]c3ncnc(N4CCOCC4)c23)c1)C1(C(=O)Nc2ccc(F)c(Br)c2F)CC1: 0.00
- O=C(Nc1cccc(-c2c[nH]c3ncnc(N4CCOCC4)c23)c1)c1cccn(-c2ccc(F)cc2)c1=O: 7.31
- O=C(Nc1ccc(F)cc1)C1(C(=O)Nc2cccc(-c3c[nH]c4ncnc(N5CCOCC5)c34)c2)CC1: 5.05
- Cc1cc(F)ccc1NC(=O)C1(C(=O)Nc2cccc(-c3c[nH]c4ncnc(N5CCOCC5)c34)c2)CC1: 4.47
- Cc1cc(NC(=O)C2(C(=O)Nc3ccc(F)cc3)CC2)cc(-c2c[nH]c3ncnc(N4CCOCC4)c23)c1: 0.00
- O=C(Nc1cccc(-c2c[nH]c3ncnc(N4CCOCC4)c23)c1)C1(C(=O)Nc2ccc(F)c(F)c2)CC1: 5.12
- CC(C)(C)c1cccc(NC(=O)C2(C(=O)Nc3cccc(-c4c[nH]c5ncnc(N6CCOCC6)c45)c3)CC2)c1: 5.49
- O=C(Nc1cccc(-c2c[nH]c3ncnc(N4CCOCC4)c23)c1)C1(C(=O)Nc2ccc(F)c(Br)c2)CC1: 0.00
- Cc1ccc(NC(=O)C2(C(=O)Nc3cccc(-c4c[nH]c5ncnc(N6CCOCC6)c45)c3)CC2)cc1: 4.82
- Cc1ccc(-n2nc(C(C)(C)C)cc2NC(=O)Nc2cccc(-c3c[nH]c4ncnc(N5CCOCC5)c34)c2)cc1: 8.44
- COc1cc(S(C)(=O)=O)ccc1Nc1nc(N(C)C)c2c(Cl)c[nH]c2n1: -0.52
- CCNc1nc(Nc2cc(F)c(C(=O)N3CCOCC3)cc2OC)ncc1C(F)(F)F: 0.31
- Cc1ccc(-n2nc(C(C)(C)C)cc2NC(=O)Nc2cccc(-c3c[nH]c4nc(Cl)nc(N5CCOCC5)c34)c2)cc1: 4.23
- CC(=O)N1CCN(c2nc(Cl)nc3[nH]cc(-c4cccc(NC(=O)Nc5cc(C(C)(C)C)nn5-c5ccc(C)cc5)c4)c23)CC1: 4.59
- O=C(Nc1ccc(Cl)cc1)C1(C(=O)Nc2cccc(-c3c[nH]c4ncnc(N5CCOCC5)c34)c2)CC1: 7.95
- O=C(Nc1cc(F)cc(Br)c1)C1(C(=O)Nc2cccc(-c3c[nH]c4ncnc(N5CCOCC5)c34)c2)CC1: 0.00
- COc1cc(NC(=O)C2(C(=O)Nc3cccc(-c4c[nH]c5ncnc(N6CCOCC6)c45)c3)CC2)ccc1F: 3.89
